Measured values drawn from the supplement of paper PMC12042874 for this set.

Below is a list of entries, each paired with its recorded amyloid nucleation score value.
- assay-text: amyloid nucleation score (Sup35N fusion, yeast selection) (log enrichment); library NNK1; higher = more nucleation; inactive = no reads after selection;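 also: zero at mode of non-aggregating sequences after 7 days selection at 30°C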
attribute-measured: amyloid nucleation score

- substance: "NIGYSLAVMSAMMLLHFNFG"
  attribute-measured: "amyloid nucleation score"
  numeric-readout: 2.95
- substance: "IKIRAFDTSSCSQFRVRPRV"
  attribute-measured: "amyloid nucleation score"
  numeric-readout: 4.63
- substance: "MSLDGD"
  attribute-measured: "amyloid nucleation score"
  numeric-readout: 0.868
- substance: "NSRSLFFYDSYVAGWYN"
  attribute-measured: "amyloid nucleation score"
  numeric-readout: 0.542
- substance: "SQHDRKYHYTIGYAQELDGL"
  attribute-measured: "amyloid nucleation score"
  numeric-readout: -0.235
- substance: "VTFVIYNRDNSAEYGVVFC"
  attribute-measured: "amyloid nucleation score"
  numeric-readout: -0.46
- substance: "RRSCRRTGGTSASKPSRQAF"
  attribute-measured: "amyloid nucleation score"
  numeric-readout: 0.013
- substance: "CMSIRWSCYPLNNQVVATEV"
  attribute-measured: "amyloid nucleation score"
  numeric-readout: 0.044
- substance: "FVLGDCCDIFSSYNQIMYIS"
  attribute-measured: "amyloid nucleation score"
  numeric-readout: 3.26
- substance: "SNIKLGFLRSLHIMKTSSDL"
  attribute-measured: "amyloid nucleation score"
  numeric-readout: -0.113
- substance: "ELGGVWN"
  attribute-measured: "amyloid nucleation score"
  numeric-readout: 0.701
- substance: "FKTRSRNRLVCCYEESRTDL"
  attribute-measured: "amyloid nucleation score"
  numeric-readout: 0.536
- substance: "VCRTPSLRHHTFDVYFWSDV"
  attribute-measured: "amyloid nucleation score"
  numeric-readout: -0.105
- substance: "ASNAWCMYYMLATGAMEISL"
  attribute-measured: "amyloid nucleation score"
  numeric-readout: -0.617
- substance: "CSSMQFVACLNSAYGSSTAM"
  attribute-measured: "amyloid nucleation score"
  numeric-readout: 0.027

* * *

- assay-text: amyloid nucleation score (Sup35N fusion, yeast selection) (log enrichment); library NNK2; higher = more nucleation; inactive = no reads after selection
amyloid nucleation score of 0.7 or higher: YES. Under 0.7: NO.

- substance: "LNNIFDLQYWQLWMSRQVKS"
  group: "YES"
- substance: "KMMTSSFRMDGVNSTLIWLI"
  group: "NO"
- substance: "ALIKTLYY"
  group: "NO"
- substance: "GVTSRYTDSVSCGYPDSMML"
  group: "NO"
- substance: "MIFYDAIGWKLGNRGSN"
  group: "NO"
- substance: "NRCWGDHEV"
  group: "NO"
- substance: "GPRLEGWSPPDRAVLSGCSD"
  group: "NO"
- substance: "GKMPIRNNKVLLKRSATNLC"
  group: "YES"
- substance: "RVNPCMTEGSLGLICSPYWY"
  group: "NO"
- substance: "SGNVYFLQNRFSVAKQNYTL"
  group: "NO"
- substance: "RVDTYYQNL"
  group: "YES"
- substance: "RDHLFCG"
  group: "NO"
- substance: "HLPFMHPRPANLSHNKTSVS"
  group: "NO"
- substance: "YLKDPTFMGVNAFCVVLHFV"
  group: "YES"
- substance: "LNYTRCQGSTKVDHSLGNLM"
  group: "NO"

* * *

- assay-text: amyloid nucleation score (Sup35N fusion, yeast selection) (log enrichment); library NNK3; higher = more nucleation; inactive = no reads after selection

- substance: "YKRLVSLNVEWALRK"
  amyloid nucleation score: "inactive"
- substance: "FDNFADNRLNKVSYKYQT"
  amyloid nucleation score: 1.27
- substance: "DSNGYKEGVDQNSGAKNTNK"
  amyloid nucleation score: "inactive"
- substance: "SGNWTDRTVIPYHYYIDKLN"
  amyloid nucleation score: "inactive"
- substance: "YDGIKSGFECLESGRKCKTA"
  amyloid nucleation score: "inactive"
- substance: "MPGAALLVVLFSGFVYREAM"
  amyloid nucleation score: "inactive"
- substance: "NTSLRYIKLFSVNDALPLP"
  amyloid nucleation score: "inactive"
- substance: "IVGDGDGQTCCVSRSLCGMV"
  amyloid nucleation score: "inactive"
- substance: "ALVDILFLDLGLTLDLRVGL"
  amyloid nucleation score: "inactive"
- substance: "ILTWRRFVFFLDWVDFTSQG"
  amyloid nucleation score: "inactive"
- substance: "DSCTEVFVKGVTRSVIVGKG"
  amyloid nucleation score: "inactive"
- substance: "YCMVKL"
  amyloid nucleation score: "inactive"
- substance: "KFRKTRSKR"
  amyloid nucleation score: "inactive"
- substance: "GLSCDYCTNLVMCCDPQL"
  amyloid nucleation score: 0.06
- substance: "RNVWRCSLPYHFIF"
  amyloid nucleation score: "inactive"
- substance: "FYPKQYQKLSYVWWY"
  amyloid nucleation score: "inactive"
- substance: "FLIKNMY"
  amyloid nucleation score: "inactive"
- substance: "LFEVSS"
  amyloid nucleation score: "inactive"
- substance: "YFRNHSRVDDLDGGRRDVFR"
  amyloid nucleation score: "inactive"
- substance: "PDLIDVFGE"
  amyloid nucleation score: "inactive"
- substance: "WKGPNRQSMLHGLPLYIYQI"
  amyloid nucleation score: -0.305
- substance: "MQTNCFRMAVYFAQVRLS"
  amyloid nucleation score: "inactive"
- substance: "YALYCVFTGNSWQSVLRHRY"
  amyloid nucleation score: 1.32
- substance: "RDNYDAFMIL"
  amyloid nucleation score: "inactive"
- substance: "CHWNYTKIRHFYEVVGDQTG"
  amyloid nucleation score: "inactive"
- substance: "LGITNGRL"
  amyloid nucleation score: "inactive"
- substance: "MTQVQCLTSVNWKVTHVLHR"
  amyloid nucleation score: 1.29
- substance: "LTGVLLMMVLYSRPHLTKAR"
  amyloid nucleation score: "inactive"
- substance: "RMPNSTFGVGWETGFQHSQG"
  amyloid nucleation score: "inactive"
- substance: "FCEPDWNEMGMDFVRCGPSL"
  amyloid nucleation score: "inactive"
- substance: "RPAIRSFFVMVSVKLR"
  amyloid nucleation score: "inactive"
- substance: "CNGLNRIVDLNWNMMSIMRS"
  amyloid nucleation score: "inactive"
- substance: "LTFGTCFGPYYGVYPNLFIM"
  amyloid nucleation score: "inactive"
- substance: "KCSTMGWRWYMSS"
  amyloid nucleation score: -0.106
- substance: "SMRYVTLKPNF"
  amyloid nucleation score: "inactive"
- substance: "TLNGFLNGYEYQ"
  amyloid nucleation score: "inactive"
- substance: "YGPSLQNSWDPFPRASSPVI"
  amyloid nucleation score: "inactive"

* * *

- assay-text: amyloid nucleation score (Sup35N fusion, yeast selection) (log enrichment); library NNK3; higher = more nucleation; inactive = no reads after selection

- biosequence: "WVNKEDESVVWYIWFGIECC"
  amyloid nucleation score: "inactive"
- biosequence: "WKFSISWVYTKME"
  amyloid nucleation score: -0.423
- biosequence: "GSSRPVVSLTSDLRRCVGKD"
  amyloid nucleation score: "inactive"
- biosequence: "SMVNWFMLRTAVVVQSRVAV"
  amyloid nucleation score: "inactive"
- biosequence: "HMSQLTLYCCAKIRKVVPLL"
  amyloid nucleation score: "inactive"
- biosequence: "LVVLLFVFI"
  amyloid nucleation score: "inactive"
- biosequence: "LYNGELNLMVRSNAEFMGSG"
  amyloid nucleation score: "inactive"
- biosequence: "STTHEYDI"
  amyloid nucleation score: "inactive"
- biosequence: "ARIPEMLWFWVGTRKRGFII"
  amyloid nucleation score: 1.74
- biosequence: "HVTSVMIFIIASIMYVEIKY"
  amyloid nucleation score: 0.339
- biosequence: "HQSNFGDMSLVSNGSFRKAK"
  amyloid nucleation score: "inactive"
- biosequence: "LDDRQSVCGTAYKVMTDIS"
  amyloid nucleation score: "inactive"
- biosequence: "IRTTSPHHDSLSNEGVIDML"
  amyloid nucleation score: "inactive"
- biosequence: "LHYLLTLARKSEWHYLLDIR"
  amyloid nucleation score: "inactive"
- biosequence: "LGFMKSFLGYSY"
  amyloid nucleation score: "inactive"
- biosequence: "GYMWGLEDNFALWTGRNNYV"
  amyloid nucleation score: "inactive"
- biosequence: "SRVISLFSGVCRGLRGYVNR"
  amyloid nucleation score: "inactive"

* * *

- assay-text: amyloid nucleation score (Sup35N fusion, yeast selection) (log enrichment); library NNK2; higher = more nucleation; inactive = no reads after selection
amyloid nucleation score of 0.4 or higher: 1.0. Under 0.4: 0.0.

- substance: "YVANGPFCPDFLLLAGWYGV"
  group: 1.0
- substance: "RYCLTVSKGLRSG"
  group: 0.0
- substance: "VKVGSSTRRGSGVPSGPKLG"
  group: 1.0
- substance: "SFNTLCLRKC"
  group: 0.0
- substance: "RADTRFVAMGFGCRNVKPAV"
  group: 0.0
- substance: "ILSSFMQ"
  group: 0.0
- substance: "EYLTNVMVRGDYFGWDHAIA"
  group: 0.0
- substance: "RNMVVGVGRRP"
  group: 0.0
- substance: "KSVWLKVGCQPPIRFEFCEM"
  group: 0.0
- substance: "RSMFDWYKCILHDLISLQSR"
  group: 1.0
- substance: "HGGQRMCAGCV"
  group: 1.0
- substance: "RVIARLLMLWFHPPCSSTKR"
  group: 1.0
- substance: "PWLDIFNVACTSRGSLVWYE"
  group: 0.0
- substance: "SSRWQFYGHF"
  group: 1.0
- substance: "SRRETTYHVVMDTFPTFAIT"
  group: 1.0
- substance: "RCPRSKLVIMDRASVLEGGR"
  group: 1.0
